Reported surviving mice; i.c.v.; 4 LD50 AahI'; ratio 1:2 (survivors of 4 mice) values for the following binders.
- Tested System: AahI' toxin of Androctonus australis hector (Androctonus australis hector) (UniProt P01479)
- Sequence (P01479 20-82): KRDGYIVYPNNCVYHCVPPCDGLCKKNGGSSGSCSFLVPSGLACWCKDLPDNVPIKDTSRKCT
- Assay Notes: cell-based or functional assay
Answer field: number only, no words.

1) AahI'D10 (VHH) VHH: QVQLQESGGGSVQAGGSLRLSCAASVDTFSTTCMGWFRQTPGKEREGVAVIKTFYAGTVYADSVKGRFTISQDIAKNTVYLQMNSLNPEDTAMYYCAATGGPYNGRCPLASQPFRYWTQGTQVTVSS: 3

Next item in the queue.
QUERY: Name the reported surviving mice; i.c.v.; 4 LD50 AahI'; ratio 1:2 (survivors of 4 mice) value associated with the binder AahI'C13 (VHH) VHH: QVQLQESGGGSVQPGGSLRLSCAASGYIYSRYCMGWFRQAPGKEREGVAVISGYGTTHFADSAKGRFTISQDKAKNMVYLQMNSLRPEDTAIYYCAVRQWDCYSANWPQTHTYDYWGQGTQVTVSS
RESULT: 2
